Assay: Inhibition of sPLA2-V (unknown origin) using substrate 1,2-bis(heptanoylthio)-glycerophosphocholine by Ellman's method based photometric assay
Design: species or system Homo sapiens
measurement_label: IC50 (µM)

Illustrative cases are given below, each with its answer.
O=C1/C(=C/c2ccc(N3CCCC3)cc2)Cc2ccccc21 ... 67.3
CN1C/C(=C\c2ccc(N3CCCC3)cc2)C(=O)/C(=C/c2ccc(N3CCCC3)cc2)C1 ... 11.2
CN(C)c1ccc(/C=C2\COC/C(=C\c3ccc(N(C)C)cc3[N+](=O)[O-])C2=O)c([N+](=O)[O-])c1 ... 7.79
C[C@@H]1C[C@H]2[C@@H]3CCC4=CC(=O)C=C[C@]4(C)[C@@]3(F)[C@@H](O)C[C@]2(C)[C@@]1(O)C(=O)CO [DEXAMETHASONE] ... 0.61

(I) CN(C)c1ccc(/C=C2\CCc3ccccc3C2=O)c([N+](=O)[O-])c1
(II) CN(C)c1ccc(/C=C/C(=O)C2CCc3ccccc3C2=O)c([N+](=O)[O-])c1 (configuration not stated)
(III) CN(C)c1ccc(/C=C2\CN(Cc3ccccc3)C/C(=C\c3ccc(N(C)C)cc3[N+](=O)[O-])C2=O)c([N+](=O)[O-])c1
(IV) CN1C/C(=C\c2ccc(N(C)C)cc2[N+](=O)[O-])C(=O)/C(=C/c2ccc(N(C)C)cc2[N+](=O)[O-])C1
In: Ascending by IC50, please: list the compounds accordingly. Kindly provide the labels arranged according to the requested ordering.
Out: IV, III, II, I

(A) O=C1/C(=C/c2ccc(N3CCCC3)cc2)CC/C1=C\c1ccc(N2CCCC2)cc1
(B) O=C1/C(=C/c2ccc(N3CCCC3)cc2)CN(Cc2ccccc2)C/C1=C\c1ccc(N2CCCC2)cc1
(C) O=C1/C(=C/c2ccc(N3CCCC3)cc2)CCC/C1=C\c1ccc(N2CCCC2)cc1
In: Arrange items by their IC50 values in increasing order. Write the labels, ordered according to the request.
Out: B, C, A
